# Tested on: E. coli ATCC25922
# Protocol Notes: Bacterial growth minimal inhibitory concentration (microdilution, CLSI M7-A7)
# Type: cell-based
# Recorded Conditions: Escherichia coli, ATCC25922; quinolone-sensitive strain; cation-adjusted Mueller-Hinton Broth
Lab note - cut at 0.2 µg/mL for MIC: yes if strictly below, no if not.

## Task Please let me know if C[C@@](CCn1ncc2cc(C#CC#C[C@H]3C[C@@H]3CO)c(F)cc21)(C(=O)NO)S(C)(=O)=O [Example 46] shows MIC below 0.2 µg/mL.
## Result yes

## Task Record C[C@@](CCn1ncc2cc(C#CC#CC3(O)CSC3)ccc21)(C(=O)NO)S(C)(=O)=O [Example 13] : is its MIC strictly below 0.2 µg/mL?
## Result no

## Task Is the reported MIC for COc1ccc(-c2ccc3c(ccn3CCC(C)(C(=O)NO)S(C)(=O)=O)c2F)c(F)c1 (racemic) [RE12] strictly below 0.2 µg/mL?
## Result no

## Task Here's an entry: CSc1ccc(-c2ccc3c(ccn3CCC(C)(C(=O)NO)S(C)(=O)=O)c2)c(F)c1 (racemic) [RE10] . Is its MIC below 0.2 µg/mL?
## Result no

## Task Take the compound C[C@@](CCn1ncc2cc(C#Cc3ccc(C4(CO)CC4)cc3)ccc21)(C(=O)NO)S(C)(=O)=O [Example 52] and say whether its MIC is less than 0.2 µg/mL.
## Result yes

## Task State whether 0.2 µg/mL exceeds MIC recorded for CC(CCn1ncc2cc(CCc3ccccc3)ccc21)(C(=O)NO)S(C)(=O)=O (racemic) [RE4] .
## Result no

## Task Decide: MIC of C[C@@](CCn1ccc2cc(C#Cc3ccc([C@H]4C[C@@H]4CO)cc3)ccc21)(C(=O)NO)S(C)(=O)=O [Example 33] strictly below 0.2 µg/mL?
## Result yes

## Task Is 0.2 µg/mL strictly greater than the compound's reported MIC? compound: CC(C)(O)C#CC#Cc1ccc2c(cnn2CC[C@](C)(C(=O)NO)S(C)(=O)=O)c1 [Example 7]
## Result no

## Task Quick check: does C[C@@](CCn1ccc2cc(C#Cc3ccc(C4(O)COC4)cc3)ccc21)(C(=O)NO)S(C)(=O)=O [Example 10] have MIC under 0.2 µg/mL?
## Result yes

## Task Please let me know if C[C@@](CCn1ncc2cc(C#CC#C[C@H]3C[C@@H]3CO)ccc21)(C(=O)NO)S(C)(=O)=O [Example 26] shows MIC below 0.2 µg/mL.
## Result yes

## Task Please indicate whether the reported MIC of C[C@@](CCn1ccc2cc(C#Cc3ccc(C4(CO)CC4)cc3)ccc21)(C(=O)NO)S(C)(=O)=O [Example 25] is strictly below 0.2 µg/mL.
## Result no

## Task Does the reported MIC of the following compound sit strictly below 0.2 µg/mL? CC(CCn1ccc2cc(-c3ccc(-n4nccn4)cc3)ccc21)(C(=O)NO)S(C)(=O)=O.O=CO (racemic) [RE8]
## Result no

## Task Hello, I'm reviewing records and need to know if MIC of C[C@@](CCn1ncc2c(F)c(C#Cc3ccc(CCO)cc3)ccc21)(C(=O)NO)S(C)(=O)=O [Example 36] is below 0.2 µg/mL. Could you check?
## Result yes

## Task # check: MIC < 0.2 µg/mL for C[C@@](CCn1ncc2cc(C#Cc3ccc([C@@H](O)CO)cc3)ccc21)(C(=O)NO)S(C)(=O)=O [Example 21]
## Result no

## Task Please let me know if CC(CCn1ccc2cc(-c3ccc(OC(F)(F)F)cc3)ccc21)(C(=O)NO)S(C)(=O)=O (racemic) [RE9] shows MIC below 0.2 µg/mL.
## Result no

====

# Test system: E. coli ATCC25922
# Protocol Notes: Bacterial growth minimal inhibitory concentration (microdilution, CLSI M7-A7)
# Format: cell-based
# Recorded Conditions: Escherichia coli, ATCC25922; quinolone-sensitive strain; cation-adjusted Mueller-Hinton Broth
# Procedure: Minimal Inhibitory Concentrations (MICs; mg/L) were determined in cation-adjusted Mueller-Hinton Broth by a microdilution method following the description given in “Methods for Dilution Antimicrobial Susceptibility Tests for Bacteria that Grow Aerobically”, Approved standard, 7th ed., Clinical and Laboratory Standards Institute (CLSI) Document M7-A7, Wayne, Pa., USA (2006). All Example compounds were tested against several Gram-positive and Gram-negative bacteria. […]
Please provide measured MIC for the entries that follow.
Please state the figure in µg/mL; there is no need to write the unit.

## Task Would you mind telling me what MIC value was observed for C[C@@](CCn1ncc2cc(C#CC#CC3(CN)CC3)ccc21)(C(=O)NO)S(C)(=O)=O ?
## Result 8

## Task Entry C[C@@](CCn1ncc2cc(C#Cc3ccc(NC(=O)CO)cc3)ccc21)(C(=O)NO)S(C)(=O)=O has what MIC?
## Result 1

## Task Given the molecule C[C@H](O)c1ccc(C#Cc2ccc3c(cnn3CC[C@](C)(C(=O)NO)S(C)(=O)=O)c2)cc1 , what is its reported MIC?
## Result 0.125

## Task Can you share its MIC? I mean this molecule: C[C@@](CCn1ncc2c(F)c(C#CC#CC3(O)COC3)ccc21)(C(=O)NO)S(C)(=O)=O
## Result 0.5

## Task # input molecule: COc1cccc(-c2ccc3c(cnn3CCC(C)(C(=O)NO)S(C)(=O)=O)c2)c1F (racemic) ; wanted: its MIC
## Result 8

## Task Fill in the blank: the reported MIC of CC(C)(O)c1ccc(C#Cc2ccc3c(cnn3CC[C@](C)(C(=O)NO)S(C)(=O)=O)c2)cc1 is ____.
## Result 0.125

## Task Recorded MIC of CC#CCOc1ccc2c(ccn2CCC(C)(C(=O)NO)S(C)(=O)=O)c1 (racemic) , please.
## Result 8

## Task Value lookup for MIC; key = CC(CCn1ncc2cc(/C=C/c3ccccc3)ccc21)(C(=O)NO)S(C)(=O)=O (racemic)
## Result 0.25

## Task Sample C[C@@](CCn1ncc2cc(C#CC#CC3(O)COC3)ccc21)(C(=O)NO)S(C)(=O)=O — what was its MIC?
## Result 1

## Task # query: MIC of entry CC(C)(O)c1ccc(C#Cc2ccc3c(ccn3CC[C@](C)(C(=O)NO)S(C)(=O)=O)c2)cc1
## Result 0.25

## Task Could you tell me which MIC is on file for COc1ccc(-c2ccc3c(cnn3CC[C@](C)(C(=O)NO)S(C)(=O)=O)c2)c(F)c1 ?
## Result 0.25

## Task Give its MIC value. Item: C[C@@](CCn1ncc2c(F)c(C#Cc3ccc(C4(CO)COC4)cc3)ccc21)(C(=O)NO)S(C)(=O)=O
## Result 0.5

## Task Would you mind telling me what MIC value was observed for CC(C)(N)C#CC#Cc1ccc2c(cnn2CC[C@](C)(C(=O)NO)S(C)(=O)=O)c1 ?
## Result 1

====

# Tested on: E. coli ATCC25922
# Protocol Notes: Bacterial growth minimal inhibitory concentration (microdilution, CLSI M7-A7)
# Format: cell-based
# Recorded Conditions: Escherichia coli, ATCC25922; quinolone-sensitive strain; cation-adjusted Mueller-Hinton Broth
Could you please report measured MIC for the items listed next?
Return type: number; implicit unit µg/mL.

## Task Which MIC is listed for CC(CCn1ncc2cc(C#Cc3ccc(N)cc3)ccc21)(C(=O)NO)S(C)(=O)=O (racemic) [RE6] ?
## Result 0.25

## Task Which value of MIC has been reported for C[C@@](CCn1ccc2cc(C#Cc3ccc(CO)cc3F)ccc21)(C(=O)NO)S(C)(=O)=O [Example 43] in the records?
## Result 0.5

## Task Data request, read-out MIC, for CC(CCn1ccc2c(F)c(C#Cc3ccc(C4(O)COC4)cc3)ccc21)(C(=O)NO)S(C)(=O)=O (racemic) [RE13]
## Result 0.25

## Task Give its MIC value. Item: C[C@@](CCn1ncc2cc(C#CC#CC3(CO)CC3)ccc21)(C(=O)NO)S(C)(=O)=O [Example 34]
## Result 0.25

## Task Quick check: MIC of C[C@@](CCn1ncc2c(F)c(C#Cc3ccc(C4(O)COC4)cc3)ccc21)(C(=O)NO)S(C)(=O)=O [Example 30] ?
## Result 0.25

## Task # get_value(readout='MIC', item= CN(C)CC(=O)OCC1(c2ccc(C#Cc3ccc4c(cnn4CC[C@](C)(C(=O)NO)S(C)(=O)=O)c3)cc2)CC1.O=CO [Example 49] )
## Result 1

## Task What does the record list as MIC for C[C@@](CCn1ccc2cc(C#Cc3ccc([C@@H](O)CO)cc3)ccc21)(C(=O)NO)S(C)(=O)=O [Example 44] ?
## Result 0.125

## Task Fill blank: measured MIC of the compound C[C@@](CCn1ncc2c(F)c(C#CC#CC3(CO)CC3)ccc21)(C(=O)NO)S(C)(=O)=O [Example 39] is ____.
## Result 0.25

====

Assignment: determine reported MIC for the given molecules.
# Test system: E. coli ATCC25922
# Protocol Notes: Bacterial growth minimal inhibitory concentration (microdilution, CLSI M7-A7)
# Assay type: cell-based
# Recorded Conditions: Escherichia coli, ATCC25922; quinolone-sensitive strain; cation-adjusted Mueller-Hinton Broth

## Task I would be grateful if you could share the reported MIC for C[C@@](CCn1ncc2cc(C#CC#CC[C@@H](O)CO)ccc21)(C(=O)NO)S(C)(=O)=O .
## Result 4 µg/mL

## Task What does the data say about its MIC? Entry: C[C@@](CCn1ncc2cc(C#CC#C[C@@H]3C[C@H]3CO)ccc21)(C(=O)NO)S(C)(=O)=O
## Result ≤ 0.063 µg/mL

## Task For the molecule shown here, C[C@@](CCn1ccc2cc(C#Cc3ccc(C4(O)COC4)cc3)c(F)cc21)(C(=O)NO)S(C)(=O)=O (single isomer, unassigned) , give the reported MIC.
## Result 0.5 µg/mL

## Task Fill in: MIC of C[C@@](CCn1ncc2cc(C#Cc3ccc(OCCO)cc3)ccc21)(C(=O)NO)S(C)(=O)=O is ___
## Result 0.25 µg/mL

## Task Please look up its MIC: CC(CCn1ncc2cc(C#Cc3ccc(CN4CCOCC4)cc3)ccc21)(C(=O)NO)S(C)(=O)=O.Cc1ccc(S(=O)(=O)O)cc1 (racemic)
## Result 0.5 µg/mL

## Task Could you tell me which MIC is on file for C[C@@](CCn1ccc2cc(C#CC#CC3(O)COC3)ccc21)(C(=O)NO)S(C)(=O)=O ?
## Result 0.5 µg/mL

## Task Which measured MIC value corresponds to C[C@@](CCn1ncc2cc(C#Cc3ccc([C@H](O)CO)cc3)ccc21)(C(=O)NO)S(C)(=O)=O ?
## Result 0.5 µg/mL
